// provenance: paper PMC5152578

- Tested on: brain cancer cell line U-87MG
- METHOD_DESCRIPTION: MTT cell viability assay, U-87MG cells
- Assay type: cell-based
- PROTOCOL_CONDITIONS: read-out: 50% inhibitory concentration (IC50), U-87MG, 24 h
MEASURED_PARAMETER: pIC50
One number for each entry, as −log10 of the molar value.

Determine from records and report pIC50 for C=C(C)C(=O)O[C@H]1CC2=C[C@@H](C/C(C)=C/[C@H]3OC(=O)C(=C)[C@H]13)OC2=O [compound 1, deoxyelephantopin, reference compound]
6.00

###

- Tested on: colon cancer cell line HCT-116
- METHOD_DESCRIPTION: MTT cell viability assay, HCT-116 cells
- Assay type: cell-based
- PROTOCOL_CONDITIONS: read-out: 50% inhibitory concentration (IC50), HCT-116, 24 h
MEASURED_PARAMETER: IC50
For clarity, give the value followed by its unit.

Identify measured IC50 associated with C=C(C)C(=O)O[C@H]1CC2=C[C@@H](C/C(C)=C/[C@H]3OC(=O)C(=C)[C@H]13)OC2=O [compound 1, deoxyelephantopin, reference compound]
280 nM

###

- System: stomach cancer cell line KATO III
- METHOD_DESCRIPTION: MTT cell viability assay, KATO III cells
- Type: cell-based
- PROTOCOL_CONDITIONS: read-out: 50% inhibitory concentration (IC50), KATO III, 24 h
MEASURED_PARAMETER: pIC50
Numbers only, as −log10 of the molar value.

Consider the molecule C=C(C)C(=O)O[C@H]1CC2=C[C@@H](C/C(C)=C/[C@H]3OC(=O)C(=C)[C@H]13)OC2=O [compound 1, deoxyelephantopin, reference compound] and give its recorded pIC50.
5.83
